condition_set: 343.15 K; 101.33 kPa; Liquid; Alternating current cell with electrodes
measured_endpoint: electrical conductivity

Consider the reported electrical conductivity for these molecules:
CCC[n+]1ccn(C)c1.O=P([O-])(O)O [1-methyl-3-propylimidazolium dihydrogen phosphate]    1.55 S/m
CCCCn1cc[n+](C)c1.O=C([O-])O [1-butyl-3-methylimidazolium hydrogen carbonate]    0.963 S/m
CCCCn1cc[n+](C)c1C.O=S(=O)([O-])O [1-butyl-2,3-dimethylimidazolium hydrogen sulfate]    0.739 S/m

Now consider a different molecule.
Query block: Output electrical conductivity of CCn1cc[n+](C)c1C.O=S(=O)([O-])O [1-ethyl-2,3-dimethylimidazolium hydrogen sulfate]
Result block: 0.925 S/m

* * *

Overview of reported surface tension liquid-gas across a group of compounds:
condition_set: 343.15 K, Maximal bubble pressure
Numbers after ± are expanded uncertainties.

Consider the reported surface tension liquid-gas for these compounds:
CCCn1cc[n+](C)c1C.O=S(=O)([O-])O [2,3-dimethyl-1-propylimidazolium hydrogen sulfate]    44.7 ± 4.5 mN/m
CCCCn1cc[n+](C)c1C.O=S(=O)([O-])O [1-butyl-2,3-dimethylimidazolium hydrogen sulfate]    42.3 ± 4.2 mN/m
CCCCCn1cc[n+](C)c1.O=C([O-])O [3-methyl-1-pentylimidazolium hydrogen carbonate]    26.5 ± 2.7 mN/m
CCCCC[n+]1ccn(C)c1.O=P([O-])(O)O [1-methyl-3-pentylimidazolium dihydrogen phosphate]    38.4 ± 3.9 mN/m

Now consider a different compound.
Query block: Output surface tension liquid-gas of CCCCn1cc[n+](C)c1.O=C([O-])O [1-butyl-3-methylimidazolium hydrogen carbonate]
Result block: 29.9 ± 3 mN/m

* * *

condition_set: 328.15 K; 101.33 kPa; Liquid; Alternating current cell with electrodes
measured_endpoint: electrical conductivity
Answer with the figure and its unit, nothing else.

Consider the reported electrical conductivity for these molecules:
CCn1cc[n+](C)c1C.O=S(=O)([O-])O [1-ethyl-2,3-dimethylimidazolium hydrogen sulfate]    0.554 S/m
CCCCCn1cc[n+](C)c1C.O=S(=O)([O-])O [2,3-dimethyl-1-pentylimidazolium hydrogen sulfate]    0.399 S/m
CCC[n+]1ccn(C)c1.O=P([O-])(O)O [1-methyl-3-propylimidazolium dihydrogen phosphate]    1.19 S/m

Query block: Output electrical conductivity of CCCCn1cc[n+](C)c1.O=P([O-])(O)O [1-butyl-3-methylimidazolium dihydrogen phosphate]
Result block: 0.868 S/m

* * *

condition_set: 293.15 K; 101.33 kPa; Liquid; Vibrating tube method
Overview of reported mass density across a group of compounds:
Give just the numeric value; kg/m3 need not be written.

CCCn1cc[n+](C)c1C.O=S(=O)([O-])O [2,3-dimethyl-1-propylimidazolium hydrogen sulfate]    1236.23
CCCCC[n+]1ccn(C)c1.O=P([O-])(O)O [1-methyl-3-pentylimidazolium dihydrogen phosphate]    1145.42

Query block: Output mass density of CCn1cc[n+](C)c1C.O=S(=O)([O-])O [1-ethyl-2,3-dimethylimidazolium hydrogen sulfate]
Result block: 1258.09

Query block: Output mass density of CCCCCn1cc[n+](C)c1.O=C([O-])O [3-methyl-1-pentylimidazolium hydrogen carbonate]
Result block: 1145.21

Query block: Output mass density of CCCCn1cc[n+](C)c1C.O=S(=O)([O-])O [1-butyl-2,3-dimethylimidazolium hydrogen sulfate]
Result block: 1213.74

Query block: Output mass density of CCCCn1cc[n+](C)c1.O=P([O-])(O)O [1-butyl-3-methylimidazolium dihydrogen phosphate]
Result block: 1179.91

Query block: Output mass density of CCC[n+]1ccn(C)c1.O=P([O-])(O)O [1-methyl-3-propylimidazolium dihydrogen phosphate]
Result block: 1198.96

Query block: Output mass density of CCCCCn1cc[n+](C)c1C.O=S(=O)([O-])O [2,3-dimethyl-1-pentylimidazolium hydrogen sulfate]
Result block: 1193.23

Query block: Output mass density of CCCCn1cc[n+](C)c1.O=C([O-])O [1-butyl-3-methylimidazolium hydrogen carbonate]
Result block: 1160.5

Origin of values: the NIST ThermoML archive (doi:10.1021/acs.jced.5b00860)
